The origin of these recorded values is ChEMBL document CHEMBL4364298.

- experimental_system: Histamine H1 receptor (Homo sapiens)
- assay_remarks: Antagonist activity at H1R in human HeLa cells assessed as inhibition of histamine-induced intracellular calcium mobilization at 10 times Ki incubated for 18 to 20 hrs prior to Fluo-4NW dye addition for 1 hr followed by compound washout and subsequent stimulation with histamine at 5 mins interval and measured up to 2 hrs by fluorescence assay
- Assay type: functional, cell-based
Catalogue of inhibition readings, one per entry.

Take a look at these entries with their results.
Reported inhibition for Histamine H1 receptor (Homo sapiens), given `Clc1ccc2c(c1)CCc1cccnc1C2=C1CCN(CC2CCC2)CC1` ?
100%

Reported inhibition for Histamine H1 receptor (Homo sapiens), given `Clc1ccc2c(c1)CCc1cccnc1C2=C1CCN(CC2CC2)CC1` ?
100%

Could you now look at the following molecule, please?
Reported inhibition for Histamine H1 receptor (Homo sapiens), given `Clc1ccc2c(c1)CCc1cccnc1C2=C1CCN(CC2CCCC2)CC1` ?
100%
